Biological target: wild-type FLT3 phosphorylation in Baf3 FLT3 cells (Homo sapiens)
Sequence (P36888 27-993): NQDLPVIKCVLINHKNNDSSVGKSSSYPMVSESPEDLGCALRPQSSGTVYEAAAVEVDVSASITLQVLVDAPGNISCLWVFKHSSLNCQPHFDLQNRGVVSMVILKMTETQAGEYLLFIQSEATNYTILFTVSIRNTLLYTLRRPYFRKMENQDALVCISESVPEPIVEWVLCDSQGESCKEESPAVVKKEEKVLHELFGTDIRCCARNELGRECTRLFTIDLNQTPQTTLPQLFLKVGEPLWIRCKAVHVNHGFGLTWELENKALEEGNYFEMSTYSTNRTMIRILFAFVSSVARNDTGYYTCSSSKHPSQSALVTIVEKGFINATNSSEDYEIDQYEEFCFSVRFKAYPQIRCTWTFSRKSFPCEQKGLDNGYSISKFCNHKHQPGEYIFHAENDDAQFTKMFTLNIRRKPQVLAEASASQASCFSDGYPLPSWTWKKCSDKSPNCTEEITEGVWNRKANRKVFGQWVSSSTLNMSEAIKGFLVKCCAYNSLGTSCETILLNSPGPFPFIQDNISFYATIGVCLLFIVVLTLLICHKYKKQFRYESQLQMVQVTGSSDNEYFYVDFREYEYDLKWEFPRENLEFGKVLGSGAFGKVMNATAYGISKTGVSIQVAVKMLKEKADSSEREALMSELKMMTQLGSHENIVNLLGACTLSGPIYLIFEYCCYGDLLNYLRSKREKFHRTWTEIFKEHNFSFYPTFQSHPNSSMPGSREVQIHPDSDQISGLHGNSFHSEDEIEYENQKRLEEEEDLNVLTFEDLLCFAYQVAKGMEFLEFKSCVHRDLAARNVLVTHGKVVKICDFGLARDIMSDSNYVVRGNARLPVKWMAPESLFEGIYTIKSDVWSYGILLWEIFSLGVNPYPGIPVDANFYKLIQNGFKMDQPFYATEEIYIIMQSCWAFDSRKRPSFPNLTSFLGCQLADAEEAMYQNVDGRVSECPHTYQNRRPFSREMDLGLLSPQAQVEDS
Experiment: Cell-based FLT3 receptor ELISA
Settings: FLT ligand-induced FLT3 phosphorylation
Assignment: determine reported pIC50 for the given compounds.
Numbers only, as −log10 of the molar value.

COc1cc2ncnc(N3CCC(N(C)C(=O)Nc4ccc(OC(C)C)cc4)C3)c2cc1OC (centres unmarked) = 5.89
COc1cc2ncnc(N3CCCCC3COC(=O)Nc3ccc(C(C)C)cc3)c2cc1OC (centres unmarked) = 6.25
CC(C)c1ccc(NC(=O)NC2CCN(c3ncnc4cc(OCCN5CCCC5=O)ccc34)C2)cc1 (centres unmarked) = 7.10
COc1cc2ncnc(N3CCC(NC(=O)Nc4ccc(N(C)C)cc4)C3)c2cc1OC (centres unmarked) = 5.18
CCN(CC)CC#Cc1ccc2ncnc(N3CCC(OC(=O)Nc4ccc(C(C)C)cc4)C3)c2c1 (centres unmarked) = 6.79
COc1cc2ncnc(N3CCC(NC(=O)Cc4ccc(C(C)C)cc4)CC3)c2cc1OC = 7.20

Attention now shifts to the item below.
According to the records, this compound COc1cc2ncnc(N3CCCC3COC(=O)Nc3ccc(C(C)C)cc3)c2cc1OC (centres unmarked) displays pIC50 of 7.57

The values you see were collected from patent US20060281771A1.
